- SYSTEM UNDER TEST: aggregated alpha-synuclein (human recombinant) (Homo sapiens, UniProt P37840)
- METHOD NOTES: Thiazine-red fluorescence displacement assay on aggregated alpha-synuclein
- COND: displacement of Thiazin-red at the high affinity binding site; compound 0.3 nM to 10000 nM; 30 min room temperature; average of different experiments; read-out: aggr. α-syn IC50
READOUT LABEL: log10 IC50 (log10 of the value in nM)
Quick note: numbers are log10 of IC50, with nM as the unit.

COMPOUND	RECORDED MEASUREMENT
CNc1ccc(-c2nc3ccc(O)cc3s2)cc1	3.85
COc1cc(/C=C/c2ccc(O)cc2)ccc1/C=C/c1ccc(O)cc1 [MeXO4]	2.38

Q) Report log10 IC50 for CC(=C(C#N)C#N)c1ccc2cc(N(C)CCF)ccc2c1 please.
A) 3.07

Q) Note, next up: Nc1c(/N=N/c2ccc(-c3ccc(/N=N/c4cc(S(=O)(=O)O)c5ccccc5c4N)cc3)cc2)cc(S(=O)(=O)O)c2ccccc12
A) 0.64

Q) Note, next up: CN(C)c1ccc(-c2cn3cc(I)ccc3n2)cc1
A) 3.76

Q) Note, next up: CN(C)c1ccc(C(=C2C=CC(=[N+](C)C)C=C2)c2ccc(N(C)C)cc2)cc1
A) 3.24

Q) Note, next up: Cc1cc(-c2ccc(/N=N/c3ccc4c(S(=O)(=O)O)cc(S(=O)(=O)O)c(N)c4c3O)c(C)c2)ccc1/N=N/c1ccc2c(S(=O)(=O)O)cc(S(=O)(=O)O)c(N)c2c1O
A) 0.88

Q) Note, next up: O=C(O)c1cc(/C=C/c2ccc(/C=C/c3ccc(O)c(C(=O)O)c3)c(Br)c2)ccc1O
A) 1.56

---

- SYSTEM UNDER TEST: aggregated Tau (recombinant human microtubule associated protein Tau) (Homo sapiens, UniProt P10636)
- Sequence (P10636 1-441 isoform P10636-8): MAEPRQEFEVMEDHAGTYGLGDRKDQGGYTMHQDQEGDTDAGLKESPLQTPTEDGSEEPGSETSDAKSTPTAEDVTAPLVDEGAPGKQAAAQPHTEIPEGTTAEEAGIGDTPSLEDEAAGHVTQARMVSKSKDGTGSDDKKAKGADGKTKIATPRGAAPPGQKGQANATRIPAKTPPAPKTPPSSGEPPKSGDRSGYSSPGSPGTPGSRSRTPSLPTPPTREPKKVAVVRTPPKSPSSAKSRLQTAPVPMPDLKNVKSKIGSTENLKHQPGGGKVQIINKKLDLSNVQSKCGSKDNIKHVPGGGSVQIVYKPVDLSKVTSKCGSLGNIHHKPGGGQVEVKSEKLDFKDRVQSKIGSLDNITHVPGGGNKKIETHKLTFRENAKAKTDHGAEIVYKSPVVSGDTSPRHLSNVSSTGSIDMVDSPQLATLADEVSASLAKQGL
- METHOD NOTES: Thiazine-red fluorescence displacement assay on aggregated tau
- COND: displacement of Thiazin-red at the high affinity binding site; compound 0.3 nM to 10000 nM; 30 min room temperature; average of different experiments; read-out: aggr. TAU IC50
pIC50: −log10 of the molar value.
The threshold is inclusive: pIC50 of exactly 6 counts as T; values below receive F.

Would you please look over these solved cases?
COMPOUND	ASSIGNED LABEL
Cc1cc(-c2ccc(/N=N/c3ccc4c(S(=O)(=O)O)cc(S(=O)(=O)O)c(N)c4c3O)c(C)c2)ccc1/N=N/c1ccc2c(S(=O)(=O)O)cc(S(=O)(=O)O)c(N)c2c1O	T
CNc1ccc(-c2nc3ccc(O)cc3s2)cc1	F
CNc1ccc(-c2ccc3ccccc3n2)cc1	F
COc1cc(/C=C/c2ccc(O)cc2)ccc1/C=C/c1ccc(O)cc1 [MeXO4]	T
CN(C)c1ccc(C(=C2C=CC(=[N+](C)C)C=C2)c2ccc(N(C)C)cc2)cc1	F

Q) Please check the record CNc1ccc(-c2nc3ccc(O)cc3s2)cn1 and state if its pIC50 is at or above 6.
A) F

Q) Note, next up: O=C(O)c1cc(/C=C/c2ccc(/C=C/c3ccc(O)c(C(=O)O)c3)c(Br)c2)ccc1O
A) T

Q) Note, next up: Nc1c(/N=N/c2ccc(-c3ccc(/N=N/c4cc(S(=O)(=O)O)c5ccccc5c4N)cc3)cc2)cc(S(=O)(=O)O)c2ccccc12
A) T

Q) Note, next up: CC(=C(C#N)C#N)c1ccc2cc(N(C)CCF)ccc2c1
A) F

Q) Note, next up: CN(C)c1ccc(-c2cn3cc(I)ccc3n2)cc1
A) F

---

- SYSTEM UNDER TEST: aggregated Aβ40 (synthetic) (Homo sapiens, UniProt P05067)
- Construct: Id; No. 4
- Sequence (P05067 672-711): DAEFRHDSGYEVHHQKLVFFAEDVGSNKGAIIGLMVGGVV
- METHOD NOTES: Thiazine-red fluorescence displacement assay on aggregated Aβ40
- COND: displacement of Thiazin-red at the high affinity binding site; compound 0.3 nM to 10000 nM; 30 min room temperature; average of different experiments; read-out: aggr. Aβ40 IC50
pIC50: −log10 of the molar value.
The threshold is inclusive: pIC50 of exactly 7 counts as yes (1); values below receive no (0).

Would you please look over these solved cases?
COMPOUND	ASSIGNED LABEL
COc1cc(/C=C/c2ccc(O)cc2)ccc1/C=C/c1ccc(O)cc1 [MeXO4]	no (0)
CNc1ccc(-c2ccc3ccccc3n2)cc1	no (0)
CN(C)c1ccc(C(=C2C=CC(=[N+](C)C)C=C2)c2ccc(N(C)C)cc2)cc1	no (0)
Nc1c(/N=N/c2ccc(-c3ccc(/N=N/c4cc(S(=O)(=O)O)c5ccccc5c4N)cc3)cc2)cc(S(=O)(=O)O)c2ccccc12	yes (1)

Q) Please check the record CNc1ccc(-c2nc3ccc(O)cc3s2)cn1 and state if its pIC50 is at or above 7.
A) no (0)

Q) Note, next up: CC(=C(C#N)C#N)c1ccc2cc(N(C)CCF)ccc2c1
A) no (0)
